Values were extracted from PubChem BioAssay AID2685.

- Protocol description: qHTS Assay for Lipid Storage Modulators in Drosophila S3 Cells
- Stated conditions: BODIPY lipid droplet fluorescence, 18-24 h, cells fed with added oleic acid; series mostly up to 46.1 µM
Screen size: about 320,000 compounds; about 2,100 (0.66%) were called active. Roughly 53% stayed inconclusive and do not appear here. Calls come from the whole dose curve; as a rule, active = well fitted inhibition curve with a large enough effect in the signal ratio, with a control signal flat (not every such curve was filed as active); inconclusive = small, poorly fitted or top-dose-only effect, or effect the other way, or a change in a side signal; inactive = flat fitted curve, though single readings scatter; the % refers to the signal ratio. The entries come from a sample that favours actives as a whole.
Choose the fitting class; nothing outside active, inactive is accepted.

> print(dat)
                                   compound  category
1  CSc1ccccc1NC(=O)CN(c1cccc(C)c1)S(C)(=O)=O  inactive
2  COc1ccc(S(=O)(=O)N2CCC(C(=O)NCc3cccc(OC)c3)CC2)cc1  inactive
3  COc1cc(C2/C(=C(\O)c3ccc4c(c3)CC(C)O4)C(=O)C(=O)N2CC2CCCO2)cc(OC)c1OC (configuration not stated)    active
4  Cc1ccc(SCC(=O)OCc2csc(CC(=O)Nc3ccccc3C)n2)cc1C  inactive
5  CCCNC(=O)C(Cc1ccccc1)NS(=O)(=O)c1ccc2c(c1)CCC(=O)N2 (configuration not stated)  inactive

Check the results log: what was the call for CC[n+]1c(/C=C/N(C)c2ccccc2)oc2ccc(F)cc21 ?
active

Same question for COc1nc(NCCN2CCOCC2)nc(Nc2ccccc2)n1 please.
inactive

// query: CSc1ccccc1NC(=O)CN(c1cc(C)cc(C)c1)S(C)(=O)=O
inactive

What do we get for COc1ccc(Cl)cc1NC(=O)CCn1c(=O)oc2ccccc21 ?
inactive

How about this compound: C=CCn1c(SCC(N)=O)nc2sc3c(c2c1=O)CCC3
inactive

Do the same for COC(=O)CCC(=O)Nc1ccc(Br)cc1 please
inactive

Please give the result for CCN(CC)C(=O)CSc1nc(-c2cccs2)cc(-c2cccs2)c1C#N too.
active

// same read-out, input: Cc1ccc(OCc2nnc(SCC(=O)NC3CCCCC3)n2C)cc1
inactive

Same lookup for CCC(C)NC(=O)C(Cc1ccccc1)NS(=O)(=O)c1ccc2c(c1)CCC(=O)N2 (configuration not stated) , please.
active

Consider next the compound Cc1ccc(S(=O)(=O)NC(C(=O)N2CCOCCOCCOCCOCC2)C(C)C)cc1 (configuration not stated) in the same way.
inactive

Check Cc1cccc(N(CC(=O)Nc2ccccc2F)S(C)(=O)=O)c1 too.
active

Next compound: CC[n+]1c(/C=C/C=C/N(C(C)=O)c2ccccc2)sc2ccccc21
inactive

Now consider Cc1ccc(Nc2nc(C(=O)N3CCC(C(=O)NCCN4CCOCC4)CC3)cs2)cc1 .
inactive

Param item: Cc1ccccc1S(=O)(=O)Cc1ccc(C(=O)NC(C)c2ccccc2)o1 (configuration not stated)
inactive

Follow-up item: CC1CCCC(NC(=O)COC(=O)c2cccs2)C1C (configuration not stated)
inactive

What do we get for O=C(Cn1[nH]c(=O)c2ccccc2c1=O)Nc1cccnc1 ?
inactive

Can you handle Cc1cc(NC(=O)c2ccc(S(=O)(=O)N3CCOCC3)cc2)nc2c1c(=O)oc1ccccc12 next?
inactive
